Data origin, for the record: ChEMBL document CHEMBL1129502

tested on: H9; assay: Inhibitory activity […] in mock infected H9 cells; format: functional, cell-based; settings: Homo sapiens
Param label: returns true (1) when IC50 < 7 µM, returns false (0) otherwise, including exact equality.

Completed entries (count: 4):
[
  {
    "COMPOUND": "CC(C)[C@@H]1CC[C@]2(C(=O)O)CC[C@]3(C)[C@H](CC[C@@H]4[C@@]5(C)CC[C@H](O)C(C)(C)[C@@H]5CC[C@]43C)[C@@H]12 [DIHYDROBETULINIC ACID]",
    "ASSIGNED CATEGORY": "false (0)"
  },
  {
    "COMPOUND": "C=C(C)[C@@H]1CC[C@]2(C(=O)O)CC[C@]3(C)[C@H](CC[C@@H]4[C@@]5(C)CC[C@H](OC(=O)COCC(=O)O)C(C)(C)[C@@H]5CC[C@]43C)[C@@H]12",
    "ASSIGNED CATEGORY": "false (0)"
  },
  {
    "COMPOUND": "C=C(C)[C@@H]1CC[C@]2(C(=O)O)CC[C@]3(C)[C@H](CC[C@@H]4[C@@]5(C)CC[C@H](OC(=O)CC(C)(C)CC(=O)O)C(C)(C)[C@@H]5CC[C@]43C)[C@@H]12",
    "ASSIGNED CATEGORY": "true (1)"
  },
  {
    "COMPOUND": "CC(C)[C@@H]1CC[C@]2(C(=O)O)CC[C@]3(C)[C@H](CC[C@@H]4[C@@]5(C)CC[C@H](OC(=O)CC(C)(C)C(=O)O)C(C)(C)[C@@H]5CC[C@]43C)[C@@H]12",
    "ASSIGNED CATEGORY": "true (1)"
  }
]

Enquiry: State whether 7 µM exceeds IC50 recorded for `C=C(C)[C@@H]1CC[C@]2(C(=O)NCCCCCCCC(=O)N[C@@H](CC(C)C)[C@@H](O)CC(=O)O)CC[C@]3(C)[C@H](CC[C@@H]4[C@@]5(C)CC[C@H](O)C(C)(C)[C@@H]5CC[C@]43C)[C@@H]12` .
Return: true (1)
